# Target: Insulin receptor (Homo sapiens)
# Settings: at 10 µM

>  <Molecule>
O=C(Nc1ccc(Cl)cc1)c1ccccc1NCc1ccncc1

>  <residual activity [%]>
79

$$$$
>  <Molecule>
CN([C@@H](Cc1ccc(OS(=O)(=O)c2cccc3cnccc23)cc1)C(=O)N1CCN(c2ccccc2)CC1)S(=O)(=O)c1cccc2cnccc12

>  <residual activity [%]>
84

$$$$
>  <Molecule>
COc1cc2nccc(Oc3ccc(NC(=S)NC(=O)c4ccccc4C)cc3)c2cc1OC

>  <residual activity [%]>
138

$$$$
>  <Molecule>
N#C/C(=C\c1ccc(O)c(O)c1)C(=O)NCc1ccccc1

>  <residual activity [%]>
89

$$$$
>  <Molecule>
O=C(NC(NC(=S)Nc1ccc(F)c([N+](=O)[O-])c1)C(Cl)(Cl)Cl)C(c1ccccc1)c1ccccc1 (stereo unspecified)

>  <residual activity [%]>
96

$$$$
>  <Molecule>
NCCNc1ncc(C(N)=O)c(Nc2cccc(C(F)(F)F)c2)n1

>  <residual activity [%]>
77

$$$$
>  <Molecule>
O=C1NC(=O)C(c2cn(CCCO)c3ncccc23)=C1c1cnccn1

>  <residual activity [%]>
96

$$$$
>  <Molecule>
N#C/C(=C1/Nc2ccccc2S1)c1ccnc(NCCc2cccnc2)n1

>  <residual activity [%]>
137

$$$$
>  <Molecule>
Cn1sc(=O)n(Cc2ccccc2)c1=O

>  <residual activity [%]>
82

$$$$
>  <Molecule>
O=C1Nc2ccc(Cl)cc2/C1=C/c1cc(Cl)c(O)c(Cl)c1

>  <residual activity [%]>
63

$$$$
>  <Molecule>
Nc1ncnc2c1c(-c1ccc(Oc3ccccc3)cc1)cn2C1CCCC1

>  <residual activity [%]>
109

$$$$

Data credit: ChEMBL document CHEMBL2218924
